# experiment: total protein half-life in vivo (active degradation + dilution); higher = more stable protein
# protocol_conditions: wild type E. coli NCM3722; growth: C-lim chemostat; doubling time 6 h
metric_name: total protein half-life in vivo (h)
Write down the numeric answer in h and omit the unit.

Quick note, total protein half-life in vivo for MTQFASPVLHSLLDTDAYKLHMQQAVFHHYYDVHVAAEFRCRGDDLLGIYADAIREQVQAMQHLRLQDDEYQWLSALPFFKADYLNWLREFRFNPEQVTVSNDNGKLDIRLSGPWREVILWEVPLLAVISEMVHRYRSPQADVAQALDTLESKLVDFSALTAGLDMSRFHLMDFGTRRRFSREVQETIVKRLQQESWFVGTSNYDLARRLSLTPMGTQAHEWFQAHQQISPDLANSQRAALAAWLEEYPDQLGIALTDCITMDAFLRDFGVEFASRYQGLRHDSGDPVEWGEKAIAHYEKLGIDPQSKTLVFSDNLDLRKAVELYRHFSSRVQLSFGIGTRLTCDIPQVKPLNIVIKLVECNGKPVAKLSDSPGKTICHDKAFVRALRKAFDLPHIKKAS landed at 4.04

The sequence MQSWYLLYCKRGQLQRAQEHLERQAVNCLAPMITLEKIVRGKRTAVSEPLFPNYLFVEFDPEVIHTTTINATRGVSHFVRFGASPAIVPSAVIHQLSVYKPKDIVDPATPYPGDKVIITEGAFEGFQAIFTEPDGEARSMLLLNLINKEIKHSVKNTEFRKL [P0AFW0] showed total protein half-life in vivo equal to 5.24

In plain terms, MEYQHWLREAISQLQASESPRRDAEILLEHVTGRGRTFILAFGETQLTDEQCQQLDALLTRRRDGEPIAHLTGVREFWSLPLFVSPATLIPRPDTECLVEQALARLPEQPCRILDLGTGTGAIALALASERPDCEIIAVDRMPDAVSLAQRNAQHLAIKNIHILQSDWFSALAGQQFAMIVSNPPYIDEQDPHLQQGDVRFEPLTALVAADSGMADIVHIIEQSRNALVSGGFLLLEHGWQQGEAVRQAFILAGYHDVETCRDYGDNERVTLGRYYQ [P0ACC1] has a documented total protein half-life in vivo of 5.5

According to the records, this sequence MLKLTDITWLYHHLPMRFSLTVERGEQVAILGPSGAGKSTLLNLIAGFLTPASGSLTIDGVDHTTMPPSRRPVSMLFQENNLFSHLTVAQNIGLGLNPGLKLNAVQQGKMHAIARQMGIDNLMARLPGELSGGQRQRVALARCLVREQPILLLDEPFSALDPALRQEMLTLVSTSCQQQKMTLLMVSHSVEDAARIATRSVVVADGRIAWQGMTNELLSGKASASALLGITG displays total protein half-life in vivo of 5.94

Kindly note the recorded total protein half-life in vivo for MKTIHDIRRSNARKLRDGVGGNSSFATMIDREPTQTSRFMGDGATKNIGDSMARHIEKCFDLPVGWLDQEHQTTNITKKPDVSITNKQITLVPVISWVQAGAWKEVGYSEVDLSTAETYPCPVPCGEMTYILRVIGDSMIDEYRPGDMIFVDPEVPACHGDDVIALMHDTGETTFKRLIEDGTQRYLKALNPNWPEPYIKINGNCSIIGTVIFSGKPRRYKIKA , which is 6.8

Noted for MRFYRPLGRISALTFDLDDTLYDNRPVILRTEREALTFVQNYHPALRSFQNEDLQRLRQAVREAEPEIYHDVTRWRFRSIEQAMLDAGLSAEEASAGAHAAMINFAKWRSRIDVPQQTHDTLKQLAKKWPLVAITNGNAQPELFGLGDYFEFVLRAGPHGRSKPFSDMYFLAAEKLNVPIGEILHVGDDLTTDVGGAIRSGMQACWIRPENGDLMQTWDSRLLPHLEISRLASLTSLI [P0ADP0] : its total protein half-life in vivo reads 5.75
